Test: Transformation by slurry in other solvents (n-hexane, toluene, water) and drying, form determined by XRD
Assay type: physicochemical
Settings: immersed in 10 v/w n-Hexane, filtered, sucked ½ hour on Buchner
Measured Property: XRD sample (form after treatment)

Past entries and their recorded results:
Compound | XRD sample (form after treatment)
CN(C)CCc1c[nH]c2ccc(C[C@H]3COC(=O)N3)cc12 [Form E] | Form D
CN(C)CCc1c[nH]c2ccc(C[C@H]3COC(=O)N3)cc12 [Form N] | Form D
CN(C)CCc1c[nH]c2ccc(C[C@H]3COC(=O)N3)cc12 [Form G] | Form D
CN(C)CCc1c[nH]c2ccc(C[C@H]3COC(=O)N3)cc12 [Form I] | Form D
CN(C)CCc1c[nH]c2ccc(C[C@H]3COC(=O)N3)cc12 [Form R] | Form D

[in] Give its XRD sample (form after treatment) value. Item: CN(C)CCc1c[nH]c2ccc(C[C@H]3COC(=O)N3)cc12 [Form K]
[out] Form D

[in] Further, for CN(C)CCc1c[nH]c2ccc(C[C@H]3COC(=O)N3)cc12 [Form S] ?
[out] Form D
